Assay: growth inhibition of DIPG glioma cells, dose response, cell-based, SU-DIPG-IV, MIPE4.0, CellTiter-Glo, qHTS (AID 1347063);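 note: compound exposure lasted 48 hours before the viability readout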
Conditions: SU-DIPG-IV viability, CellTiter-Glo ATP luminescence
Inconclusive results are not listed. Active and inactive are the calls of the source. No cut-off is given here; in the data, nearly all actives have AC50 up to about 30 µM.
# output must be one of y = active, n = inactive

See these solved cases before continuing.
CN(C)CCCN1c2ccccc2CCc2ccc(Cl)cc21 | y
CCOC(=O)[C@H](CCc1ccccc1)N[C@H]1CCc2ccccc2N(CC(=O)O)C1=O | y
Cc1c(OCC(F)(F)F)ccnc1CS(=O)c1nc2ccccc2[nH]1 (centres undefined) | n

Please find the next compound below.
query: Would you mind telling me which call this test gave CCn1cc(C(=O)O)c(=O)c2cc(F)c(N3CCN(C)CC3)cc21 ?
result: n

====

Test: differential killing of epithelial or mesenchymal cells, primary screen, imaging, PC-3E GFP, TEM4-18 mCherry, co-culture (AID 1345086);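 note: normalised mesenchymal count divided by normalised epithelial count so high means epithelial killing; cells exposed to compound for 72 h before imaging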
Details: imaging cell counts, at 1 µM, actives lie on both sides, counts scaled to control wells, 1 = unselective
Quantity Measured: red/green cell ratio (normalised)
One number for each entry.

CN[C@H]1CC[C@@H](c2ccc(Cl)c(Cl)c2)c2ccccc21 | 1.12
C/C=C/C(=O)N(CC)c1ccccc1C | 1.1
NC(=O)N1c2ccccc2CC(=O)c2ccccc21 | 1.05
CCN(CC)CCCC(C)Nc1ccnc2cc(Cl)ccc12 (configuration not stated) | 1.21
Cc1ccc(S(=O)(=O)NC(=O)NN2CCCCCC2)cc1 | 1.04

Fill in red/green cell ratio (normalised) for each of the 4 compounds listed.
1. CC(COc1ccccc1)N(CCCl)Cc1ccccc1 (configuration not stated)
2. CCCNC(C)C(=O)Nc1ccccc1C (configuration not stated)
3. CCN(Cc1ccncc1)C(=O)C(CO)c1ccccc1 (configuration not stated)
4. CC(C)[N+](C)(CCOC(=O)C1c2ccccc2Oc2ccccc21)C(C)C

result:
[1.22, 1.41, 1.08, 1.27]

====

Please go through the items and note down their percent of negative control (+Dex).
Test: modulators of glucocorticoid suppression of NF-kB, cell-based, luciferase, IL-1B stimulus, dexamethasone (AID 624486);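 note: 100% = mean signal of vehicle control wells on the plate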
Conditions: NF-kB luciferase reporter, IL-1B + dexamethasone, luminescence; actives lie on both sides, concentration not given here
Give bare numbers, in %.

Past entries and their recorded results:
CN1CCN(CCCNc2nc3ccc(Oc4ccc(NC(=O)Nc5cc(C(F)(F)F)ccc5F)cc4)cc3[nH]2)CC1 | 97.5
CC1=C(C(=O)Nc2cc(Cl)c3[nH]ncc3c2)C(c2ccc(C(F)(F)F)cc2)CC(=O)N1 (centres undefined) | 73
CCCN1CCCC(c2ccc(Nc3nc(Nc4cc(F)ccc4C(N)=O)c4cc[nH]c4n3)c(OC)c2)C1 (centres undefined) | 73.5
Cn1cc(C2=C(c3c4n(c5ccccc35)CCC(CN)C4)C(=O)NC2=O)c2ccccc21 (centres undefined) | 89.5
COc1cc(/C=N/Nc2ncnc3c2cnn3-c2ccccc2)ccc1O | 92
CCn1c(-c2nonc2N)nc2cnc(Oc3cccc(NC(=O)c4ccc(OCCN5CCOCC5)cc4)c3)cc21 | 50.5

For every record below, what is its percent of negative control (+Dex)?
1. Fc1ccc(-c2ncn(C3CCNCC3)c2-c2ccnc(Oc3ccc(Cl)cc3)n2)cc1
2. C#Cc1cccc(Nc2ncnc3ccc(OCCCCNCCS(C)(=O)=O)cc23)c1
3. Nc1nccc(-c2c(-c3ccc(F)cc3)nn3cc(C(F)(F)F)ccc23)n1

result:
103
70.5
107

====

For each record, write down the corresponding inhibition.
System: Hepatitis C virus NS3 helicase
Assay: HCV NS3 helicase inhibitors, primary screen, biochemical, fluorescence polarization, LOPAC1280 library (AID 687035)
Conditions: Purified HCV NS3 helicase, Cy5-dT15 ssDNA binding fluorescence polarization; stronger effect = higher value; concentration not given here
Active and inactive are the calls of the source. No stated cut-off is given here; in the data, active means inhibition above about 37%; inactive means the rest.

CN1CCN(CCCN2c3ccccc3Sc3ccc(C(F)(F)F)cc32)CC1 | -6% (inactive)
CCCNC(=O)NS(=O)(=O)c1ccc(Cl)cc1 | -1% (inactive)
Fc1ccc([C@@H]2CCNC[C@H]2COc2ccc3c(c2)OCO3)cc1 | -1% (inactive)
CC1COc2c(N3CCN(C)CC3)c(F)cc3c(=O)c(C(=O)O)cn1c23 (configuration not stated) | -6% (inactive)
CC1=C(CC(=O)O)c2cc(F)ccc2/C1=C\c1ccc(S(C)=O)cc1 (configuration not stated) | 1% (inactive)

For each entry beneath this line, provide reported inhibition.
1. CC(N=C(NC#N)Nc1ccncc1)C(C)(C)C (configuration not stated)
2. Cc1c(OCC(F)(F)F)ccnc1CS(=O)c1nc2ccccc2[nH]1 (configuration not stated)
3. Cn1c(=O)c2[nH]cnc2n(C)c1=O
4. CC(=O)CCCCn1c(=O)c2c(ncn2C)n(C)c1=O
5. O=C1c2c(O)ccc(O)c2C(=O)c2c(NCCNCCO)ccc(NCCNCCO)c21
6. OCCN1CCN(CCCN2c3ccccc3Sc3ccc(Cl)cc32)CC1
7. CCN(CC)CCNC(=O)c1ccc(N)cc1

result:
["-5% (inactive)", "-2% (inactive)", "-2% (inactive)", "-4% (inactive)", "119% (active)", "-1% (inactive)", "-2% (inactive)"]

====

Experiment: kinase inhibitors against Plasmodium liver-stage infection, cell-based, known kinase inhibitor set, luminescence, hepatoma host viability (AID 624392);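 note: infected cells incubated roughly two days before readout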
Settings: Plasmodium liver stage in hepatoma cells, luciferase luminescence, concentration not given here; measured here: host liver cell viability
Quantity Measured: liver cell % of control (%)
One number for each entry, in %.

CC(C)c1ccc(Nc2nccc(-c3cnn4ncccc34)n2)cc1 | 146
CC(O)CNc1cc(-c2[nH]c3cccnc3c2-c2ccc(F)cc2)ccn1 (stereo not given) | 229
O=C(O)c1ccc(Oc2nccc(-c3c(-c4ccc(F)cc4)ncn3C3CCNCC3)n2)cc1 | 104
CS(=O)(=O)CCn1c(=O)c(Oc2ccc(F)cc2F)cc2cnc(NC3CCOCC3)nc21 | 122

Please report liver cell % of control for every entry that follows.
1. CS(=O)(=O)N1CCC(n2c(=O)c(Oc3ccc(F)cc3F)cc3cnc(NC4CCOCC4)nc32)CC1
2. NC(=O)c1cc(-c2ccncc2)cc(-c2ccccc2)c1N

result:
[112, 95.8]

Batch request: liver cell % of control per item, same order as input.
1. NS(=O)(=O)c1ccc(Nc2ncc(-c3ccccc3)o2)cc1
2. CN(C)c1cc2c(Nc3ccc4c(cnn4Cc4ccccc4)c3)ncnc2cn1
3. Fc1ccc(-c2nn3ccccc3c2-c2ccncc2)cc1
4. CC(C)(CO)CNC(=O)c1ccc2[nH]c(O)c(N=Nc3ccc(S(N)(=O)=O)cc3)c2c1

result:
1. 108
2. 130
3. 99.4
4. 82.1

====

System: F380Y/beta1
Assay: modulators of BK channel variants, profiling panel, selectivity assay, cell-based, U2OS BacMam, thallium flux, beta subunits (AID 1259406);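 note: initial slope of Thallos dye fluorescence rise after thallium is added; log ratio against the mean of 0.3% DMSO vehicle wells on the same plate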
Details: at 30 µM
Under this convention, YES denotes log fold change Tl+ flux strictly below 0.02 and NO denotes log fold change Tl+ flux at or above 0.02.

C#C[C@]1(O)CC[C@H]2[C@@H]3CCC4=CC(=O)CC[C@@H]4[C@H]3CC[C@@]21CC | NO
CN1C(C(=O)Nc2ccccn2)=C(O)c2ccccc2S1(=O)=O | NO
C#C[C@]1(O)CC[C@H]2[C@@H]3CCC4=Cc5oncc5C[C@]4(C)[C@H]3CC[C@@]21C | NO
CC(C)Cc1ccc(C(C)C(=O)O)cc1 (configuration not stated) | YES
C[C@H](CCC(=O)O)[C@H]1CC[C@H]2[C@@H]3C(=O)C[C@@H]4CC(=O)CC[C@]4(C)[C@H]3CC(=O)[C@]12C | YES

query: Decide: log fold change Tl+ flux of Cn1cnc([N+](=O)[O-])c1Sc1ncnc2nc[nH]c12 strictly below 0.02?
result: YES

query: Here's an entry: CC(COc1ccccc1)NC(C)C(O)c1ccc(O)cc1 (configuration not stated) . Is its log fold change Tl+ flux below 0.02?
result: NO

====

Would you kindly list percent of negative control (+Dex) for each of these molecules?
Assay: modulators of glucocorticoid suppression of NF-kB, cell-based, luciferase, IL-1B stimulus, dexamethasone (AID 624486);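 note: 100% = mean signal of vehicle control wells on the plate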
Conditions: NF-kB luciferase reporter, IL-1B + dexamethasone, luminescence; actives lie on both sides, concentration not given here
One number for each entry, in %.

Sample answers from the record:
O=C1NC(=NCCc2cccc(F)c2)SC1=Cc1ccc2ncccc2c1 | 85.5
Fc1ccc(-c2nn3ccccc3c2-c2ccncc2)cc1 | 90
NS(=O)(=O)c1cccc(-c2cc3ccncc3cc2OCc2ccccc2)c1 | 95
NS(=O)(=O)c1ccc(-c2cc3ccncc3cc2OCc2ccccc2)cc1 | 81

# per-item lookup of percent of negative control (+Dex); items listed below
1. Cc1cccc(Oc2nccc(-c3c(-c4ccc(F)cc4)ncn3C3CCNCC3)n2)c1C
2. Cc1ccc(-c2cc3c(NC(=O)C4CC4)ncnc3o2)cc1
3. CCc1cccc(CC)c1/C=C/c1cncc(C(=O)NC)c1
4. Cc1ccc2c(-c3ccnc(Nc4ccc5c(c4)OCCO5)n3)c(-c3ccc(C(F)(F)F)cc3)nn2n1
5. CNC(=O)c1sc(-n2cnc3cc(OC)c(OC)cc32)cc1OCc1ccccc1C(F)(F)F
6. O=C(O[C@H]1CN[C@H](C#Cc2cc3ncnc(Nc4ccc(OCc5cccc(F)c5)c(Cl)c4)c3s2)C1)N1CCOCC1

result:
1: 104; 2: 83.5; 3: 81; 4: 86; 5: 68.5; 6: 74.5

Please give percent of negative control (+Dex) for each item listed below.
1. O=C(Nc1n[nH]c2cc(-c3cc(F)ccc3F)ccc12)C1CC1
2. Nc1c(C(=O)c2cccc(C#CCN3CCCCC3)c2)cnn1-c1ccc(F)cc1
3. Cn1cc(C2=C(c3cn(CCCCCN)c4ccccc34)C(=O)NC2=O)c2ccccc21
4. Cc1ccc(C(=O)NC(C)C)cc1-c1ccc(C(=O)NCC2CC2)cc1
5. NC(=O)c1ccc(Oc2nccc(-c3c(-c4ccc(F)cc4)ncn3C3CCNCC3)n2)cc1

result:
81
101
99.5
94.5
96

Parameter requested: percent of negative control (+Dex). Apply to each item below.
1. C[C@@H](Oc1cc(-n2cnc3ccc(OCC4CCN(C)CC4)cc32)sc1C(N)=O)c1ccccc1Cl
2. CC(=O)N1CCC(Nc2ncc3cc(Oc4ccc(F)cc4F)c(=O)n(C)c3n2)CC1
3. Cc1cc(C)c2c(n1)sc1c(N)ncnc12
4. O=c1c(Oc2ccc(F)cc2F)cc2cnc(NC3CCOCC3)nc2n1CCCO
5. Cc1[nH]nc2c1N=C(c1ccccc1Cl)c1cc([N+](=O)[O-])ccc1N2
6. COc1ccc(C2=C(N3CCc4ccccc43)C(=O)NC2=O)cc1
7. CCCn1cc(C2=C(c3cn(C)c4ccccc34)C(=O)NC2=O)c2ccccc21

result:
104
102
68.5
92
104
84
102

Look at each molecule and report its percent of negative control (+Dex).
1. CNC(=O)c1cncc(/C=C/c2ccccc2C)c1
2. O=S1CCN(Cc2ccc(-c3ccc4ncnc(Nc5ccc(OCc6ccccc6)c(F)c5)c4c3)o2)CC1
3. CN=C1NC(=O)C(=Cc2ccc3ncccc3c2)S1
4. Cn1c(=O)c(Cc2ccc(F)cc2F)cc2cnc(NC3CCOCC3)nc21
5. Fc1ccc(-c2ncn(C3CCNCC3)c2-c2ccnc(Oc3ccc(F)c(F)c3)n2)cc1
6. Cn1c(=O)c(Oc2ccc(F)cc2F)cc2cnc(NC3CCC(O)CC3)nc21 (centres undefined)

result:
1. 108
2. 77.5
3. 98.5
4. 98.5
5. 106
6. 85

Please go through the list and note percent of negative control (+Dex) for each molecule.
1. Cc1ccc(NC(=O)c2ccnc(N3CCCC3)c2)cc1-c1ccc(C(=O)NCC2CC2)cc1
2. CC1=C(C(=O)Nc2ccc3[nH]ncc3c2)C(c2ccc(F)cc2)NC(=O)N1 (centres undefined)
3. CNC(C#Cc1c(F)ccc2c1C(=Cc1[nH]ccc1OC)C(=O)N2)CO (centres undefined)

result:
[104, 100, 144]

Required: percent of negative control (+Dex), one value per molecule below.
1. O=C1Nc2ccc(F)cc2C1=Cc1ccc[nH]1
2. CS(=O)(=O)CCNCc1ccc(-c2ccc3ncnc(Nc4ccc(OCc5ccccc5)c(C(F)(F)F)c4)c3c2)o1
3. O=C(O)c1ccc(Oc2nccc(-c3c(-c4ccc(F)cc4)ncn3C3CCNCC3)n2)cc1
4. COc1cc2ncnc(Nc3ccc4c(cnn4Cc4ccccc4)c3)c2cc1OC
5. O=C1NC(=O)C(c2ccc(Cl)cc2)=C1Nc1ccc(Cl)c(C(=O)O)c1

result:
1: 136; 2: 91.5; 3: 97; 4: 71.5; 5: 92

Batch lookup, percent of negative control (+Dex) per entry.
1. CNCC#Cc1c(F)ccc2c1C(=Cc1[nH]ccc1OC)C(=O)N2
2. Nc1nc(-c2ccc3c(c2)/C(=C\c2cc(Br)c(O)c(Br)c2)C(=O)N3)cs1
3. Fc1ccc(-c2ncn(C3CCNCC3)c2-c2ccnc(Oc3cccc(C(F)(F)F)c3)n2)cc1

result:
1. 162
2. 86.5
3. 97
